IC50 values, listed per item
Biological target: hERG (KV11.1) (Homo sapiens, UniProt Q12809)
Sequence (Q12809 whole entry): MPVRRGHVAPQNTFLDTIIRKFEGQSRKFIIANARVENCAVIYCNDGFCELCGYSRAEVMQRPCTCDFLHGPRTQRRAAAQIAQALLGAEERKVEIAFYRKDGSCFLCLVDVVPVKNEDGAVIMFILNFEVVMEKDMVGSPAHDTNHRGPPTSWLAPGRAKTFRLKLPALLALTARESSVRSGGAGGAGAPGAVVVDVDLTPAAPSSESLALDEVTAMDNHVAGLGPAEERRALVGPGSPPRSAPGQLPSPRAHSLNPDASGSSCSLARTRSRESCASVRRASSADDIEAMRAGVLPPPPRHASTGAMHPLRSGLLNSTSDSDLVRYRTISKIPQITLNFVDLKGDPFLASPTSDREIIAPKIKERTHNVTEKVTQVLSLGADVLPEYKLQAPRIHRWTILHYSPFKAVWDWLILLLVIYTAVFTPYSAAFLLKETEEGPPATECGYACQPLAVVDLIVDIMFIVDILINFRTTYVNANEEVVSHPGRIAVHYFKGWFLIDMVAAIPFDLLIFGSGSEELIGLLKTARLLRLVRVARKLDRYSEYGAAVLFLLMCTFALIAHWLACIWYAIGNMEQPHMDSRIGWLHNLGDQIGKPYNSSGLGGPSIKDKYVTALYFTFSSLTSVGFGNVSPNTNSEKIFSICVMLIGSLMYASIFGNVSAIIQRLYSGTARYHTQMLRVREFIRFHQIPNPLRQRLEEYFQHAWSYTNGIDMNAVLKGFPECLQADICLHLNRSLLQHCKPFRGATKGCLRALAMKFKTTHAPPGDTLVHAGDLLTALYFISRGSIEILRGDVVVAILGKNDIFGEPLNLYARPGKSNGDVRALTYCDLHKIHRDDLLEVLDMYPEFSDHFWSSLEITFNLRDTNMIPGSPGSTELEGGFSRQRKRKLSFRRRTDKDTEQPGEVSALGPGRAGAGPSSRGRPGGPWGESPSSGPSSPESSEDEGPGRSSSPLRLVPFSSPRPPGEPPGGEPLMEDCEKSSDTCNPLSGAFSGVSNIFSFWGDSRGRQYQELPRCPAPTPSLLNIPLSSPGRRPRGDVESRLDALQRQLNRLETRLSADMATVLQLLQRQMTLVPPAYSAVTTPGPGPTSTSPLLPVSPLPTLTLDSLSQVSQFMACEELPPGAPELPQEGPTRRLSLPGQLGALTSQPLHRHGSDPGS
Assay: Automated planar patch-clamp (APC, QPatch II 48), voltage-ladder protocol, CHO cells stably expressing human hERG
Text: To assess the effect of a large set of SCRAs on hERG (see SI Table I and SI Fig. S1 for a list of the 36 included SCRAs and corresponding structures), we used the automated planar patch-clamp (APC) technique on mammalian Chinese hamster ovary (CHO) cells stably expressing human hERG. […]
Give me the value, and tack the unit on after it.

COMPOUND	TEST_READOUT	MEASURED
COC(=O)C(NC(=O)c1nn(CC2CCCCC2)c2ccccc12)C(C)(C)C (stereo not drawn) [MDMB-[…]]	IC50	12.4 µM
CCCCCCn1nc(C(=O)NC(C(N)=O)C(C)(C)C)c2ccccc21 (stereo not drawn) [ADB-HEXINACA]	IC50	15.8 µM

Please turn your attention to the following entry.
// query // IC50 lookup, key: CC(C)(NC(=O)c1nn(CCCCCF)c2ccccc12)c1ccccc1 [5F-Cumyl-PINACA]
// result 15.5 µM

* * *

Biological target: hERG (KV11.1) (Homo sapiens)
Experiment: Automated planar patch-clamp (APC, QPatch II 48), voltage-ladder protocol, CHO cells stably expressing human hERG
Settings: best fit; 1 = no reduction of Gmax, 0 = complete reduction; APC, 22 °C
I would appreciate it if you labelled entries Satisfied when hERG channel Efficacy (max reduction in Gmax) Gmin is 0.3 or higher, otherwise Not satisfied.

COMPOUND	ASSAYED_SYSTEM	CLASS
O=C(N/N=C1\C(=O)N(CCCCCF)c2ccccc21)c1ccccc1 [5F-BZO-POXIZID]	hERG (KV11.1) (Homo sapiens)	Not satisfied
CC(C)(C)[C@H](NC(=O)c1n[nH]c2ccc(Br)cc12)C(N)=O [ADB-5'Br-INACA]	hERG (KV11.1) (Homo sapiens)	Satisfied
CCCCCn1cc(C(=O)c2cccc3ccccc23)c2ccccc21 [JWH-018]	hERG (KV11.1) (Homo sapiens)	Satisfied
C=CCCCN1C(=O)/C(=N\NC(=O)c2ccccc2)c2ccccc21 [BZO-4en-POXIZID]	hERG (KV11.1) (Homo sapiens)	Satisfied

// query Please indicate if the recorded hERG channel Efficacy (max reduction in Gmax) Gmin for CCCCCn1ccc(C(=O)c2cccc3ccccc23)c1 [JWH-030] meets or exceeds 0.3.
// result Not satisfied

// query Please indicate if the recorded hERG channel Efficacy (max reduction in Gmax) Gmin for CCCCCn1cc(C(=O)c2ccc(C)c3ccccc23)c2ccccc21 [JWH-122] meets or exceeds 0.3.
// result Satisfied

// query Please indicate if the recorded hERG channel Efficacy (max reduction in Gmax) Gmin for O=C(c1cccc2ccccc12)c1nn(CCCCCF)c2ccccc12 [THJ-2201] meets or exceeds 0.3.
// result Satisfied

* * *

Biological target: KV7.1/KCNE1 (Homo sapiens)
Test: Automated patch-clamp (APC, population patch), CHO cells stably expressing human KV7.1/KCNE1
Format: cell-based
Conditions: best fit; 1 = no reduction of Gmax, 0 = complete reduction
Description: Both hERG and KV7.1/KCNE1 contribute to cardiomyocyte repolarization (Fig. 1g). Inhibition of KV7.1/KCNE1 alone can be proarrhythmic. Moreover, under conditions with impaired hERG function, upregulation of KV7.1/KCNE1 has been proposed to partially compensate for the loss of hERG [38, 39]. […] To assess if SCRAs also affect KV7.1/KCNE1, we used mammalian CHO cells stably expressing human KV7.1/KCNE1. […]
TEST_READOUT: KV7.1/KCNE1 channel Efficacy (max reduction in Gmax) Gmin
Answer with the value's number alone.

COMPOUND	MEASURED
CC(C)[C@H](NC(=O)c1nn(Cc2ccc(F)cc2)c2ccccc12)C(N)=O	0.15
COC(=O)[C@@H](NC(=O)c1cn(CC2CCCCC2)c2ccccc12)C(C)C	0.83

Please turn your attention to the following entry.
// query // KV7.1/KCNE1 channel Efficacy (max reduction in Gmax) Gmin lookup, key: COC(=O)C(NC(=O)c1nn(CCCCCF)c2ccccc12)C(C)(C)C (stereo not drawn)
// result 0

* * *

Target: hERG WT (Homo sapiens)
Sequence (Q12809 whole entry): as above
Test: Manual patch-clamp (MPC) on hERG wild type
TEST_READOUT: IC50 (µM)
Supply the numeric figure in µM, leaving out any unit text.

// query // IC50 lookup, key: COC(=O)C(NC(=O)c1nn(CCCCCF)c2ccccc12)C(C)(C)C (stereo not shown) [5F-MDMB-PINACA]
// result 4

* * *

CB1 receptor Efficacy Emax values, listed per item
Target: human CB1 receptor (Homo sapiens, UniProt P21554)
Construct: host or cells: CHO-K1 stably expressing CB1, apoaequorin and Gα16
Sequence (P21554 whole entry): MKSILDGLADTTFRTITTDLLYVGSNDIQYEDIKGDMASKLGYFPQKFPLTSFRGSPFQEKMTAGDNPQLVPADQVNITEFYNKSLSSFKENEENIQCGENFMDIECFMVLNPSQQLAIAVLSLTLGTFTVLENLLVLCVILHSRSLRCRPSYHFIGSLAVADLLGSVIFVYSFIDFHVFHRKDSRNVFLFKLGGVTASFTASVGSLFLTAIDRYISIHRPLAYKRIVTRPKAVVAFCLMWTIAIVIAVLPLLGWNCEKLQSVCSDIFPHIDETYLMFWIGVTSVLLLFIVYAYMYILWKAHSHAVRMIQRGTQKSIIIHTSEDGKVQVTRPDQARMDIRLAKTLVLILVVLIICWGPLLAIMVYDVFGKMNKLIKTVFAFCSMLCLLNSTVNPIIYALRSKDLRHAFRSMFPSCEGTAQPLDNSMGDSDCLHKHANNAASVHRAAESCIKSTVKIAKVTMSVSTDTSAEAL
Experiment: AequoScreen intracellular calcium release assay, CHO-K1 cells stably expressing CB1
Type: cell-based
Settings: normalized to maximum of JWH-018; n ≥ 3 (JWH-030 n = 2)
Supply the numeric figure in % JWH-018, leaving out any unit text.

Some solved entries appear below for comparison.
COMPOUND	TEST_READOUT	MEASURED
COC(=O)[C@@H](NC(=O)c1n[nH]c2ccc(Br)cc12)C(C)(C)C [MDMB-5'Br-INACA]	CB1 receptor Efficacy Emax	110
C=CCCCn1nc(C(=O)NC(C(N)=O)C(C)(C)C)c2ccccc21 (stereo not shown) [ADB-4en-PINACA]	CB1 receptor Efficacy Emax	117
CC(C)[C@H](NC(=O)c1cn(CC2CCCCC2)c2ccccc12)C(N)=O [AB-CHMICA]	CB1 receptor Efficacy Emax	110

// query Return CB1 receptor Efficacy Emax measured with human CB1 receptor (Homo sapiens, UniProt P21554) given this compound: C=CCCCn1nc(C(=O)N[C@H](C(=O)OC)C(C)(C)C)c2ccccc21 [MDMB-4en-PINACA]
// result 109

// query Return CB1 receptor Efficacy Emax measured with human CB1 receptor (Homo sapiens, UniProt P21554) given this compound: N#CCCCCn1nc(C(=O)NCc2ccccc2)c2ccccc21 [Benzyl-4CN-BUTINACA]
// result 109

// query Return CB1 receptor Efficacy Emax measured with human CB1 receptor (Homo sapiens, UniProt P21554) given this compound: O=C(N/N=C1\C(=O)N(CCCCCF)c2ccccc21)c1ccccc1 [5F-BZO-POXIZID]
// result 113

// query Return CB1 receptor Efficacy Emax measured with human CB1 receptor (Homo sapiens, UniProt P21554) given this compound: CCCCCCN1C(=O)C(=NNC(=O)c2ccccc2)c2ccccc21 [BZO-HEXOXIZID]
// result 84.3

// query Return CB1 receptor Efficacy Emax measured with human CB1 receptor (Homo sapiens, UniProt P21554) given this compound: Cc1ccc(S(=O)(=O)n2nc(C(=O)NC(C)(C)c3ccccc3)c3ccccc32)cc1 [Cumyl-TsINACA]
// result 106

// query Return CB1 receptor Efficacy Emax measured with human CB1 receptor (Homo sapiens, UniProt P21554) given this compound: C=CCCCN1C(=O)/C(=N\NC(=O)c2ccccc2)c2ccccc21 [BZO-4en-POXIZID]
// result 112

// query Return CB1 receptor Efficacy Emax measured with human CB1 receptor (Homo sapiens, UniProt P21554) given this compound: O=C(c1cccc2ccccc12)c1cn(CCCCCF)c2ccccc12 [AM-2201]
// result 99.7

// query Return CB1 receptor Efficacy Emax measured with human CB1 receptor (Homo sapiens, UniProt P21554) given this compound: CC(C)(C)C(NC(=O)c1cn(CC2CCCCC2)c2ccccc12)C(N)=O (stereo not shown) [ADB-CHMICA]
// result 110

// query Return CB1 receptor Efficacy Emax measured with human CB1 receptor (Homo sapiens, UniProt P21554) given this compound: CCCCCn1nc(C(=O)NC23CC4CC(CC(C4)C2)C3)c2ccccc21 [APINACA]
// result 108

// query Return CB1 receptor Efficacy Emax measured with human CB1 receptor (Homo sapiens, UniProt P21554) given this compound: CCCCn1nc(C(=O)NC(C(=O)OC)C(C)(C)C)c2cc(Br)ccc21 (stereo not shown) [MDMB-5'Br-BUTINACA]
// result 114

// query Return CB1 receptor Efficacy Emax measured with human CB1 receptor (Homo sapiens, UniProt P21554) given this compound: COC(=O)C(NC(=O)c1cn(CC2CCCCC2)c2ccccc12)C(C)(C)C (stereo not shown) [MDMB-CHMICA]
// result 107

// query Return CB1 receptor Efficacy Emax measured with human CB1 receptor (Homo sapiens, UniProt P21554) given this compound: CCCCCn1cc(C(=O)c2ccc(C)c3ccccc23)c2ccccc21 [JWH-122]
// result 105

// query Return CB1 receptor Efficacy Emax measured with human CB1 receptor (Homo sapiens, UniProt P21554) given this compound: CC(C)(NC(=O)c1nn(CCCCCF)c2ccccc12)c1ccccc1 [5F-Cumyl-PINACA]
// result 112

* * *

pIC50 values, listed per item
Target: KV7.1/KCNE1 (Homo sapiens)
Assay: Automated patch-clamp (APC, population patch), CHO cells stably expressing human KV7.1/KCNE1
Assay type: cell-based
For clarity, pIC50 is expressed as the negative log10 of concentration in mol/L.

// query Return pIC50 measured with KV7.1/KCNE1 (Homo sapiens) given this compound: CCCCCCn1nc(C(=O)NC(C(N)=O)C(C)(C)C)c2ccccc21 (centres unmarked)
// result 5.70

// query Return pIC50 measured with KV7.1/KCNE1 (Homo sapiens) given this compound: CC(C)(NC(=O)c1nn(CCCCCF)c2ccccc12)c1ccccc1
// result 4.36

// query Return pIC50 measured with KV7.1/KCNE1 (Homo sapiens) given this compound: CCCCCn1ccc(C(=O)c2cccc3ccccc23)c1
// result 4.91

// query Return pIC50 measured with KV7.1/KCNE1 (Homo sapiens) given this compound: O=C(NC12CC3CC(CC(C3)C1)C2)c1nn(CCCCCF)c2ccccc12
// result 4.45

// query Return pIC50 measured with KV7.1/KCNE1 (Homo sapiens) given this compound: COC(=O)C(NC(=O)c1nn(CCCCCF)c2ccccc12)C(C)(C)C (centres unmarked)
// result 4.15
